biological target: Plasmin (Homo sapiens); construct: Human plasmin is purchased; purchased Boehringer Mannheim, Indianapolis, Indiana; experiment: biochemical; details: read-out: Kass Plasmin (converted)
Sequence (P00747 581-810 limits assumed): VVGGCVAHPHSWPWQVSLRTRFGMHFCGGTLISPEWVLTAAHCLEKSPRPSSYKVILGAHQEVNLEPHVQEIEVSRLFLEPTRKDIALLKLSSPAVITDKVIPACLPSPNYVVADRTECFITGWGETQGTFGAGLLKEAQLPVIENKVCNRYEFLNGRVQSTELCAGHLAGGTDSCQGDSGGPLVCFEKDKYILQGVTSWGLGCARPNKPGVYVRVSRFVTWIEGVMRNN
Sequence (P00747 97-580 partner limits assumed): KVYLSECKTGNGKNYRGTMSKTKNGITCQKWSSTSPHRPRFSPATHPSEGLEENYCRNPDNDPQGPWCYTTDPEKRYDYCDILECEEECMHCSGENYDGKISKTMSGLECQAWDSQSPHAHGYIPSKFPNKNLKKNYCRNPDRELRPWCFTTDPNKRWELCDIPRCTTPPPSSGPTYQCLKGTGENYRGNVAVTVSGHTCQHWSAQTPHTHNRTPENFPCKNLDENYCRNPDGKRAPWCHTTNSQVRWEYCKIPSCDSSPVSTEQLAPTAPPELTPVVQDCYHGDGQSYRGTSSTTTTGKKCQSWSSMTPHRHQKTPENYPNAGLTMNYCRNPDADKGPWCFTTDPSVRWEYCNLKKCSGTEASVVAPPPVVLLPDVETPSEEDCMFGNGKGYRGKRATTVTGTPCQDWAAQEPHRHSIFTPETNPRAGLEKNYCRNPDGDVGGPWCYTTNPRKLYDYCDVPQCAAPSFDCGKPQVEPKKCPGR
measured.quantity: Kd

> print(dat)
                                 cpd.smiles  measured.quantity  measured.value
1  CCS(=O)(=O)N[C@H](Cc1ccccc1)C(=O)N1CCC[C@H]1C(=O)NCCc1ccc(NC(=N)N)cc1                 Kd          > 1 mM
2  CCS(=O)(=O)N[C@H](Cc1ccccc1)C(=O)N1CCC[C@H]1C(=O)NCCCc1cccc(C(=N)N)c1                 Kd          > 1 mM
3  CCS(=O)(=O)N[C@H](Cc1ccccc1)C(=O)N1CCC[C@H]1C(=O)NCCc1cccc(C(=N)N)c1                 Kd          > 1 mM
